Recorded Dehydrated molecules values for a group of substances are listed next.
Test system: PatD
Assay: PatD enzyme reaction: introduction of azoline rings into substrate peptides, mass change read by MALDI-TOF-MS
Assay type: biochemical, Prochloron didemni
Details: modification with PatD of synthesized substrates (Table 11-2)
Square brackets hold non-standard residues; d marks the D form. Ends that are not written are not given here. * marks the point of attachment. For = O=C*
Form: value (number only, do not type unit).

fMNKKNILPQQGQPVIRLTAGQLSSQLAELSEEALGDA-GLEAS-LCGCTSYCYTVS-AYDGV: PatD substrate: leader, recognition sequence 1, cassette, recognition sequence 2 (For-MNKKNILPQQGQPVIRLTAGQLSSQLAELSEEALGDAGLEASLCGCTSYCYTVSAYDGV; cysteine pairing not given here) : 2

Entry under test: fMLAELSEEALGDA-GGGGG-VXAX (X=PhSer)-A: PatD substrate with shortened leader, GGGGG and PhSer in the cassette (For-MLAELSEEALGDAGGGGGV[PhSer]A[PhSer]A) . Its Dehydrated molecules was 1
